This section presents compounds with their documented melting point values.

Data request: Which melting point value is on record for COc1cccc(C=CC(=O)C=Cc2cccc(OC)c2)c1 ?
Data returned: 52 to 54 °C

Data request: Also CN1CCN(C(c2ccc(Cl)cc2)c2cccc(C=CC(=O)O)c2)CC1 (stereo not given) ?
Data returned: 131 to 141 °C

Data request: CSc1ccc(CCN2CCN(C(=O)c3ccc(N(CCOC(C)C)C(=O)CCl)cc3)CC2)cc1 , same question.
Data returned: 115 to 116 °C

Data request: Now give it for C[C@H](NC(=O)c1c[nH]c2ncc(-c3cccs3)nc12)C(C)(C)C too.
Data returned: 311 to 312 °C

Data request: Further, for CCOC=Nc1noc(-c2cc(C(C)(C)C)c(O)c(C(C)(C)C)c2)n1 ?
Data returned: 159 to 161 °C

Data request: Follow-up item: Cc1cc2oc(C(=O)O)cc(=O)c2c(C)c1Cl
Data returned: 289 to 290 °C

Data request: What do we get for CC(C)=CCC/C(C)=C/CSc1nc2cc(Cl)ccc2[nH]1 ?
Data returned: 102 to 104 °C
